Assay Comment: Antioxidant activity assessed as ABTS cation radical scavenging activity measured after 6 mins
Conditions Used: ABTS cation radical
pIC50: −log10 of the molar value.
Readout Type: pIC50

Read off the recorded pIC50 for `COc1cccc(NC(=O)Nc2nc(-c3cc4cc(Br)ccc4o3)cs2)c1`
< 3.70

Read off the recorded pIC50 for `Cc1ccc(NC(=O)Nc2nc(-c3cc4cc(Br)ccc4o3)cs2)cc1`
< 3.70

Shifting focus to the compound that follows.
Read off the recorded pIC50 for `O=C(Nc1ccccc1)Nc1nc(-c2cc3cc(Br)ccc3o2)cs1`
< 3.70
